study.target: IBV-CoV 3CL^pro (Avian infectious bronchitis virus)
Sequence (P0C6Y1 2780-3086): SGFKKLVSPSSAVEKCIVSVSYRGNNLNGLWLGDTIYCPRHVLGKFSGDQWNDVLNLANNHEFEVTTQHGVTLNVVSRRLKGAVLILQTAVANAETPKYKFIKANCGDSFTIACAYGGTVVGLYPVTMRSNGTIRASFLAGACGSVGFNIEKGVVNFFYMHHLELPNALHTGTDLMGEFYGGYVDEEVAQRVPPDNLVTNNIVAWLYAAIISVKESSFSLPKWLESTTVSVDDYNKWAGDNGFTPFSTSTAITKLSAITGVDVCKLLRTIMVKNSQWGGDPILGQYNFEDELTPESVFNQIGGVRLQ
property: pKi
A value of pKi is the negative decimal logarithm of a concentration given in moles per litre.

Query: pKi; subject: COc1cccc2[nH]c(C(=O)N[C@@H](CC(C)C)C(=O)N[C@@H](C[C@@H]3CCNC3=O)C(=O)CO)cc12 8.40

###

protocol.summary: Rat pharmacokinetic study
condition.set: male, Wistar-Hannover, rat, plasma, iv, 2 mg/kg, Half life, Mean, PF-00835231 active dosed 2mg/kg intravenous
property: half-life (min)
Unit min implied. Number only.

Which half-life is reported for this molecule? COc1cccc2[nH]c(C(=O)N[C@@H](CC(C)C)C(=O)N[C@@H](C[C@@H]3CCNC3=O)C(=O)CO)cc12 43.1

###

study.target: CYP2C8 (Homo sapiens, UniProt P10632)
Sequence (P10632 whole entry): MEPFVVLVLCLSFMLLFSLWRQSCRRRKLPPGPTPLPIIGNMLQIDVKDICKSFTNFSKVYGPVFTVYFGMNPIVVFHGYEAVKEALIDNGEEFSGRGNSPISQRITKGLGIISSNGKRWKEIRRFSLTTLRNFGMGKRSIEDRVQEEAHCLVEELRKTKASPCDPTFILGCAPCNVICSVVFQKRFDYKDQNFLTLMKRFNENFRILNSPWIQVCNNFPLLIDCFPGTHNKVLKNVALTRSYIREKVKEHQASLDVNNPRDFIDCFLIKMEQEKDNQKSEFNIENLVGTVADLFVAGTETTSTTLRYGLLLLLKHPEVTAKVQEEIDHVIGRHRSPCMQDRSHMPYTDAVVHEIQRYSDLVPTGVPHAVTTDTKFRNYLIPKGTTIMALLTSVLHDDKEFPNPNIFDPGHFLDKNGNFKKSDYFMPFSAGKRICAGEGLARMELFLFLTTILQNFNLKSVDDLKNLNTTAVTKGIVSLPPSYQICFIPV
protocol.summary: Reversible CYP inhibition in human liver microsomes
condition.set: human, microsomes, pH 7.4, Percent of Control Activity, CYP 2C8, 1 µM, Zero-Minute Preincubation
property: activity at 1 µM (%)
Answer format: numeric, % implied, no suffix.

Please give the measured activity at 1 µM for this compound: COc1cccc2[nH]c(C(=O)N[C@@H](CC(C)C)C(=O)N[C@@H](C[C@@H]3CCNC3=O)C(=O)COP(=O)(O)O)cc12 92.1

###

study.target: UniProt:P10635
Sequence (P10635 whole entry): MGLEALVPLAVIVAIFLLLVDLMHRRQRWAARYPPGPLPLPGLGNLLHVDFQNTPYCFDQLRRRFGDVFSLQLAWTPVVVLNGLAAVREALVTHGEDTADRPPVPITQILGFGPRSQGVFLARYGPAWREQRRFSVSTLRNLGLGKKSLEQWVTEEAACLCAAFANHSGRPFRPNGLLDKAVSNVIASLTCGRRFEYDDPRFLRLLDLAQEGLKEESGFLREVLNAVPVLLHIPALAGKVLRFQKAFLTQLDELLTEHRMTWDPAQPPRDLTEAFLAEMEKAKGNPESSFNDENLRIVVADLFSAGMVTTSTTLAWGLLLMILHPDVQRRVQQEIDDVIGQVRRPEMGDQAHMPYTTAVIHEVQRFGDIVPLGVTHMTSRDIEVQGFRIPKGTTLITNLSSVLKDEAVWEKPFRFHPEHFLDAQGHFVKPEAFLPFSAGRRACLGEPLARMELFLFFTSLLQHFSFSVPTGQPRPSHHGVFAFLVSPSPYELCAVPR
protocol.summary: Reversible CYP inhibition in human liver microsomes
condition.set: human, microsomes, pH 7.4, Percent of Control Activity, CYP 2D6, 0.398 µM, Zero-Minute Preincubation
property: activity at 0.398 µM (%)
I only need the number, in %, no unit after it.

Report activity at 0.398 µM for COc1cccc2[nH]c(C(=O)N[C@@H](CC(C)C)C(=O)N[C@@H](C[C@@H]3CCNC3=O)C(=O)COP(=O)(O)O)cc12 please. 101

###

study.target: UniProt P42575
Sequence (P42575 170-325 limits assumed): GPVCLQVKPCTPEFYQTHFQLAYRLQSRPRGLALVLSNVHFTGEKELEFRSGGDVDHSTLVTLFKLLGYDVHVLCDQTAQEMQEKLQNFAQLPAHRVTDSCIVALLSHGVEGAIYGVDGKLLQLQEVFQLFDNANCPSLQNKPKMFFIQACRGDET
Sequence (P42575 348-452 limits assumed): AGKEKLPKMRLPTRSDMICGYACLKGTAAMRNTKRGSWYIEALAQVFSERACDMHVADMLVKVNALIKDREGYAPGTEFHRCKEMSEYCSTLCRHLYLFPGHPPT
property: IC50

Hi! What's the reported IC50 for COc1cccc2[nH]c(C(=O)N[C@@H](CC(C)C)C(=O)N[C@@H](C[C@@H]3CCNC3=O)C(=O)CO)cc12 on UniProt P42575? > 33 µM

###

Test system: CYP3A4/5
protocol.summary: in vitro
condition.set: human, microsomes, pH 7.4, Percent of Control Activity, CYP 3A4/5 (tst), 2.09 µM, Zero-Minute Preincubation
property: activity at 0 min, 2.09 µM
Remember to put the unit after the number in your answer.

# lookup: activity at 0 min, 2.09 µM of COc1cccc2[nH]c(C(=O)N[C@@H](CC(C)C)C(=O)N[C@@H](C[C@@H]3CCNC3=O)C(=O)CO)cc12 [PF-00835231] 98.1%

###

protocol.summary: Plasma protein binding by equilibrium dialysis
condition.set: human, plasma, pH 7.4, Individual fraction unbound, human plasma, 5.0 uM, replicates Day 1-3
property: fraction unbound at 6 h, 5 uM
# print the numeric value only

For the compound shown here, COc1cccc2[nH]c(C(=O)N[C@@H](CC(C)C)C(=O)N[C@@H](C[C@@H]3CCNC3=O)C(=O)CO)cc12 , give the reported fraction unbound at 6 h, 5 uM. 0.423

###

study.target: UniProt:P33261
protocol.summary: Reversible CYP inhibition in human liver microsomes
condition.set: human, microsomes, pH 7.4, Percent of Control Activity, CYP 2C19, 0.158 µM, 30-Minute Preincubation
property: activity at 0.158 µM (%)
State the answer as a number, implicitly in %.

Please look up its activity at 0.158 µM: COc1cccc2[nH]c(C(=O)N[C@@H](CC(C)C)C(=O)N[C@@H](C[C@@H]3CCNC3=O)C(=O)COP(=O)(O)O)cc12 100

###

Test system: CYP3A4/5
protocol.summary: in vitro
condition.set: human, microsomes, pH 7.4, Percent of Control Activity, CYP 3A4/5 (mdz), 15.8 µM, Zero-Minute Preincubation
property: activity at 15.8 µM (%)
Hi! Could you send only the number? It should be in %, unit omitted.

Quick one: activity at 15.8 µM for COc1cccc2[nH]c(C(=O)N[C@@H](CC(C)C)C(=O)N[C@@H](C[C@@H]3CCNC3=O)C(=O)COP(=O)(O)O)cc12 [PF-07304814] ? 102

###

Test system: CYP3A4/5
protocol.summary: in vitro
condition.set: human, microsomes, pH 7.4, Percent of Control Activity, CYP 3A4/5 (tst), 0.1 µM, Zero-Minute Preincubation
property: activity at 0.1 µM

Entry COc1cccc2[nH]c(C(=O)N[C@@H](CC(C)C)C(=O)N[C@@H](C[C@@H]3CCNC3=O)C(=O)CO)cc12 : reported activity at 0.1 µM = ? 103%

###

Test system: CYP3A4/5
protocol.summary: Reversible CYP inhibition in human liver microsomes
condition.set: human, human liver microsomes, pH 7.4, probe testosterone (tst), Percent of Control Activity, CYP 3A4/5 (tst), 0.214 µM, 30-Minute Preincubation
property: activity at 30 min, 0.214 µM
Field note: include the unit after the figure.

Report activity at 30 min, 0.214 µM for COc1cccc2[nH]c(C(=O)N[C@@H](CC(C)C)C(=O)N[C@@H](C[C@@H]3CCNC3=O)C(=O)CO)cc12 please. 115%

###

study.target: CYP2C9 (Homo sapiens)
Sequence (P11712 whole entry): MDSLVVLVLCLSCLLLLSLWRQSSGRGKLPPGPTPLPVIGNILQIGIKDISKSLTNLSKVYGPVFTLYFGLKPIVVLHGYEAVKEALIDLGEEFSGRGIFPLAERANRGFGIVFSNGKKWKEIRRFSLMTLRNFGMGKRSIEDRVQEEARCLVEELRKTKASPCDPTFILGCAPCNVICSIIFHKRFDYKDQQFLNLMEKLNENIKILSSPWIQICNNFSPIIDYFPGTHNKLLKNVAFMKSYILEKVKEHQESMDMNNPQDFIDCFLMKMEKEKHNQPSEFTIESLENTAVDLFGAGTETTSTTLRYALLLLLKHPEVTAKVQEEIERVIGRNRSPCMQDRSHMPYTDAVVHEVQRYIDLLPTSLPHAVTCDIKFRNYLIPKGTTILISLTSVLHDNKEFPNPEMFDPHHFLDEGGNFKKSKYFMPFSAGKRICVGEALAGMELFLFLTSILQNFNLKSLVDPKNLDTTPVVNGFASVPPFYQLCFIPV
protocol.summary: Reversible CYP inhibition in human liver microsomes
condition.set: human, microsomes, pH 7.4, Percent of Control Activity, CYP 2C9, 1 µM, Zero-Minute Preincubation
property: activity at 1 µM
// return the numeric value with its unit appended

Please look up its activity at 1 µM: COc1cccc2[nH]c(C(=O)N[C@@H](CC(C)C)C(=O)N[C@@H](C[C@@H]3CCNC3=O)C(=O)COP(=O)(O)O)cc12 100%

###

study.target: UniProt:P10635
protocol.summary: Reversible CYP inhibition in human liver microsomes
condition.set: human, microsomes, pH 7.4, Percent of Control Activity, CYP 2D6, 39.8 µM, Zero-Minute Preincubation
property: activity at 39.8 µM (%)
Response body: numeric value in %, unit text excluded.

// query activity at 39.8 µM value for entry COc1cccc2[nH]c(C(=O)N[C@@H](CC(C)C)C(=O)N[C@@H](C[C@@H]3CCNC3=O)C(=O)COP(=O)(O)O)cc12 [PF-07304814] 102

###

protocol.summary: Metabolic stability and enzyme kinetics in liver S9 (conversion to PF-00835231)
condition.set: human, human liver S9, pH 7.5, Km, Human liver S9, best-fit, Two enzyme: MM + Unsaturable
property: Km at 20 min
For clarity, give the value followed by its unit.

For the molecule COc1cccc2[nH]c(C(=O)N[C@@H](CC(C)C)C(=O)N[C@@H](C[C@@H]3CCNC3=O)C(=O)COP(=O)(O)O)cc12 [PF-07304814] , what Km at 20 min is on record? 6.23 µM

###

study.target: CYP2C19 (Homo sapiens, UniProt P33261)
Sequence (P33261 whole entry): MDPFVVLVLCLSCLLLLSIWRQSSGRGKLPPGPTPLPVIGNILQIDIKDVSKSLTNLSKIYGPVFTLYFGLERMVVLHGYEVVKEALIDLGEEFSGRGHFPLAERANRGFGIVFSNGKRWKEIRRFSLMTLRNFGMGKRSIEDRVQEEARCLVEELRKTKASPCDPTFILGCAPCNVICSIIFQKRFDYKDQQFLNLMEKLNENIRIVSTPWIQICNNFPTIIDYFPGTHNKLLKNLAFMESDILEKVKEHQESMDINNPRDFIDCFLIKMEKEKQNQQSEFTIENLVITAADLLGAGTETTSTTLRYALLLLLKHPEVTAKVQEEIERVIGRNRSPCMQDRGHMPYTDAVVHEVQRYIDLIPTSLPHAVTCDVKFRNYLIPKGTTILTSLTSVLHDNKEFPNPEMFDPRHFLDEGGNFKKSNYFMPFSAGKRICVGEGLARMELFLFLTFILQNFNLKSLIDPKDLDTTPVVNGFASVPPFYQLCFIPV
protocol.summary: Reversible CYP inhibition in human liver microsomes
condition.set: human, microsomes, pH 7.4, Percent of Control Activity, CYP 2C19, 100 µM, 30-Minute Preincubation
property: activity at 100 µM (%)
The reply should be a number in %, with the unit left off.

Quick one: activity at 100 µM for COc1cccc2[nH]c(C(=O)N[C@@H](CC(C)C)C(=O)N[C@@H](C[C@@H]3CCNC3=O)C(=O)COP(=O)(O)O)cc12 ? 95.5

###

study.target: CYP2C8 (Homo sapiens)
protocol.summary: Reversible CYP inhibition in human liver microsomes
condition.set: human, microsomes, pH 7.4, Percent of Control Activity, CYP 2C8, 100 µM, Zero-Minute Preincubation
property: activity at 100 µM

Name the recorded activity at 100 µM for COc1cccc2[nH]c(C(=O)N[C@@H](CC(C)C)C(=O)N[C@@H](C[C@@H]3CCNC3=O)C(=O)COP(=O)(O)O)cc12 [PF-07304814] . 85.6%

###

protocol.summary: Plasma protein binding by equilibrium dialysis
condition.set: both, Sprague Dawley, rat, plasma, pH 7.4, Individual fraction unbound, rat plasma, Sprague Dawley, male and female, 3.44 uM, Day 3
property: fraction unbound at 6 h, 3.44 uM
Reply with just the number.

What does the record list as fraction unbound at 6 h, 3.44 uM for COc1cccc2[nH]c(C(=O)N[C@@H](CC(C)C)C(=O)N[C@@H](C[C@@H]3CCNC3=O)C(=O)COP(=O)(O)O)cc12 ? 0.404

###

protocol.summary: Metabolic stability and enzyme kinetics in liver S9 (conversion to PF-00835231)
condition.set: rat, liver S9, pH 7.5, CLintu (unbound CLint)
property: microsomal CLint (µL/min/mg)
The reply should contain only the number, in µL/min/mg.

Consider the compound COc1cccc2[nH]c(C(=O)N[C@@H](CC(C)C)C(=O)N[C@@H](C[C@@H]3CCNC3=O)C(=O)COP(=O)(O)O)cc12 and give its measured microsomal CLint. 51

###

protocol.summary: in vitro
condition.set: monkey, CC50
property: CC50

Recorded CC50 of COc1cccc2[nH]c(C(=O)N[C@@H](CC(C)C)C(=O)N[C@@H](C[C@@H]3CCNC3=O)C(=O)CO)cc12 [PF-00835231] , please. > 50 µM

Values from paper PMC8523698
